- study_system: cGMP-PDE V (Homo sapiens)
- Construct: The cGMP-PDE and other PDE isozymes were isolated from cardiovascular tissues (heart and aorta); from tissue; host or cells: cardiovascular tissues (heart and aorta) of various animal species and man
- test_details: c-GMP-PDE V inhibitory activity (cyclic nucleotide hydrolysis by isolated PDE isozymes)
- Assay type: biochemical, various animal species and man
- condition_set: 10 μM; read-out: Percent Inhibition cGMP-PDE V
reported_endpoint: inhibition at 10 µM (%)

Solved entries:
CCn1ncc2c(NCc3ccc(O)cc3)c3ccccc3nc21    78
CCn1ncc2c(NCc3cccnc3)c3ccccc3nc21    75

1: CCn1ncc2c(NCc3ccccn3)c3ccccc3nc21
2: CCn1ncc2c(NCc3ccc(C#N)cc3)c3ccccc3nc21
Request: I'm curious, which of these has a smaller inhibition at 10 µM number: 1 or 2 ? // output: label of the selected item
Result: 2
(2: 57%, 1: 97%)

A: CCn1ncc2c(NC3CCc4ccccc43)c3ccccc3nc21 (stereo not drawn)
B: CCn1ncc2c(NCc3ccc(OCCN4CCOCC4)cc3)c3ccccc3nc21
Request: Select one: A or B . Criterion: greater recorded inhibition at 10 µM. API: response body contains the label of the selected item.
Result: A
(A: 94%, B: 34%)

---

- study_system: cGMP-PDE V (Homo sapiens)
- Construct: The cGMP-PDE and other PDE isozymes were isolated from cardiovascular tissues (heart and aorta)
- test_details: c-GMP-PDE V inhibitory activity (cyclic nucleotide hydrolysis by isolated PDE isozymes)
reported_endpoint: IC50 (µM)

Known results for compounds:
CCn1ncc2c(NCCc3ccccc3)c3ccccc3nc21 [2(c)]    4.2
CCn1ncc2c(NCc3cccc(OC)c3)c3ccccc3nc21 [Example 11]    0.45
CCn1ncc2c(NCc3ccc(O)cc3)c3cc(O)ccc3nc21 [Example 24]    0.12
CCn1ncc2c(NCc3cccc(O)c3)c3ccccc3nc21 [Example 13]    0.15
CCn1ncc2c(NCc3ccc(OC)c(OC)c3)c3ccccc3nc21 [Example 7]    0.18
CCn1nc(C)c2c(NCc3ccccc3)c3ccccc3nc21 [9(d)]    0.17
CCn1ncc2c(NCc3ccc(O)cc3)c3ccccc3nc21 [18(a)]    0.091
CCn1ncc2c(NCc3cccc(O)c3)c3ccccc3nc21 [Example 14]    0.086
CCn1ncc2c(N(C)Cc3ccccc3)c3ccccc3nc21 [Example 20]    1.26
Cc1nn(C)c2nc3ccccc3c(NCc3ccccc3)c12 [Example 12(c)]    1.14

1: CCn1ncc2c(NCc3ccccc3)c3ccccc3nc21 [1(a)]
2: CCn1ncc2c(NCc3ccc(OC)cc3)c3cc(OC)ccc3nc21 [23(c)]
Request: API: POST /compare with 1 and 2 ; response names the item with higher IC50. // respond with label for picked entry
Result: 1
(1: 0.21 µM, 2: 0.014 µM)

1: CCn1ncc2c(NCc3ccc(OC)cc3)c3ccccc3nc21 [Example 3]
2: CC(C)n1ncc2c(NCc3ccccc3)c3ccccc3nc21 [4(c)]
Request: Sorting ascending by IC50, which comes first: 1 or 2 ? // respond with label for picked entry
Result: 1
(1: 0.089 µM, 2: 0.18 µM)

---

- study_system: cGMP-PDE V (Homo sapiens)
- Construct: The cGMP-PDE and other PDE isozymes were isolated from cardiovascular tissues (heart and aorta); from tissue; host or cells: cardiovascular tissues (heart and aorta) of various animal species and man
- test_details: c-GMP-PDE V inhibitory activity (cyclic nucleotide hydrolysis by isolated PDE isozymes)
- Type: biochemical, various animal species and man
- condition_set: 1 μM; read-out: Percent Inhibition cGMP-PDE V
reported_endpoint: inhibition at 1 µM (%)

CCn1ncc2c(NCc3ccc(C#N)cc3)c3ccccc3nc21 [Example 10]    0
CCn1ncc2c(NCc3cccnc3)c3ccccc3nc21 [Example 19]    43
CCn1ncc2c(NC3CCc4ccccc43)c3ccccc3nc21 (stereo not drawn) [Example 22]    75
CCn1ncc2c(NCc3ccccc3)c3ccc(OC)cc3nc21 [5(e)]    54
CCn1ncc2c(NCc3ccc(O)cc3)c3ccccc3nc21 [18(b)]    82
CCn1ncc2c(NCc3ccccn3)c3ccccc3nc21 [Example 21]    58
CCn1ncc2c(NCc3ccccc3)c3ccc(O)cc3nc21 [Example 6]    50

a: CCn1ncc2c(NCc3ccncc3)c3ccccc3nc21 [Example 8]
b: CCn1ncc2c(NCc3ccc(OCCN4CCOCC4)cc3)c3ccccc3nc21 [15(c)]
Request: Given the two records a and b , choose the one whose inhibition at 1 µM value is lower. Field: selected label. Fill in the label of the entry you choose.
Result: a

The reported numbers originate from patent US6008226A.
